test.summary: activity coefficient (dimensionless); of the first substance listed, at infinite dilution; xn = mol fraction of the nth substance listed
conditions.used: 358.15 K; 101.33 kPa; Liquid; Chromatography; x1 = 0
measured.endpoint: activity coefficient
Numbers only.

# example entries with known answers
CC#N [acetonitrile] + CCCCCCCCCCCC[N+](C)(C)CCOc1ccccc1.O=S(=O)([N-]S(=O)(=O)C(F)(F)F)C(F)(F)F; 0.539
CCc1ccccc1 [ethylbenzene] + CCCCCCCCCCCC[N+](C)(C)CCOc1ccccc1.N#C[N-]C#N; 1.55

Continue with the molecule presented below.
In: What value of measured activity coefficient is listed for Cc1ccccc1 [toluene] + CCCCCCCCCCCC[N+](C)(C)CCOc1ccccc1.O=S(=O)([N-]S(=O)(=O)C(F)(F)F)C(F)(F)F ?
Out: 0.851
